# Tested on: Foxtail, Giant (giant foxtail, Setaria faberi)
# TEST_METHOD_NOTES: Test A preemergence, Foxtail, Giant
# Type: in vivo
# CONDITION_SET: Preemergence, 500 g ai/ha; visual injury on 0 to 100 scale (0 no effect, 100 complete control), approximately 10 days
Hi there, I'd appreciate the recorded Foxtail, Giant plant response rating for every entry that follows.

# get_value(readout='Foxtail, Giant plant response rating', item= Cc1cc(C)c(C2=NOC(C)(CCl)C2)cc1NS(=O)(=O)C(F)(F)F (stereo not shown) [Compound 226] )
100

# get_value(readout='Foxtail, Giant plant response rating', item= Cc1cc(Cl)c(C(=O)N(C)C)cc1NS(=O)(=O)C(F)(F)F [Compound 251] )
90

# get_value(readout='Foxtail, Giant plant response rating', item= Cc1cc(F)c(C(=O)N2CC(C)OC(C)C2)cc1N(S(=O)(=O)C(F)(F)F)S(=O)(=O)C(F)(F)F (stereo not shown) [Compound 235] )
10

# get_value(readout='Foxtail, Giant plant response rating', item= COC1CCN(C(=O)c2cc(NS(=O)(=O)C(F)(F)F)c(Cl)cc2C)CC1 [Compound 246] )
100

* * *

# Tested on: Foxtail, Giant (giant foxtail, Setaria faberi)
# TEST_METHOD_NOTES: Test A preemergence, Foxtail, Giant
# Format: in vivo
# CONDITION_SET: Setaria faberi, pre-emergence, 240 h; Preemergence, 500 g ai/ha; 0 to 100 scale (0 no effect, 100 complete control); read-out: Plant response rating, Foxtail, Giant
Hi there, I'd appreciate the recorded pest or weed control at 500 g/ha for every entry that follows.
Number plus unit, in that order.

# get_value(readout='pest or weed control at 500 g/ha', item= Cc1cc(C)c(N(COC(=O)C(C)(C)C)S(=O)(=O)C(F)(F)F)cc1C1=NOC2(CCCCC2)C1 [Compound 159] )
70%

# get_value(readout='pest or weed control at 500 g/ha', item= Cc1cc(Cl)c(NS(=O)(=O)C(F)(F)F)cc1C(=O)N1CCCCC1 [Compound 18] )
100%

# get_value(readout='pest or weed control at 500 g/ha', item= Cc1cc(C)c(C2=NO[C@@H]3CCC[C@H]23)cc1NS(=O)(=O)C(F)(F)F [Compound 103] )
100%

# get_value(readout='pest or weed control at 500 g/ha', item= Cc1cc(C)c(C2=NOC3(CCCCC3)C2)cc1NS(=O)(=O)C(F)(F)F [Compound 197] )
100%

# get_value(readout='pest or weed control at 500 g/ha', item= Cc1cc(C)c(C2=NOC3CCOCC23)cc1NS(=O)(=O)C(F)(F)F (stereo not drawn) [Compound 120] )
100%

# get_value(readout='pest or weed control at 500 g/ha', item= Cc1cc(C)c(N(COC(=O)C(C)(C)C)S(=O)(=O)C(F)(F)F)cc1C1=NO[C@@H]2CCC[C@H]12 [Compound 100] )
90%

* * *

# Tested on: blackgrass (Alopecurus myosuroides)
# TEST_METHOD_NOTES: Test A1 preemergence, blackgrass
# Type: in vivo
# CONDITION_SET: 125 g ai/ha, 0 to 100 scale, 0 no effect, 100 complete control
Hi there, I'd appreciate the recorded Plant response rating, Blackgrass for every entry that follows.
The answer should be a number; do not append a unit.

Query the reported Plant response rating, Blackgrass for blackgrass (Alopecurus myosuroides); item: Cc1c(C(=O)N2C[C@@H](C)O[C@H](C)C2)cc(N(COC(=O)C(C)(C)C)S(=O)(=O)C(F)(F)F)c(C)c1C (relative stereo)
30

Query the reported Plant response rating, Blackgrass for blackgrass (Alopecurus myosuroides); item: `Cc1c(C(=O)N2CCOCC2)cc(N(COC(=O)C(C)(C)C)S(=O)(=O)C(F)(F)F)c(C)c1C`
30

Query the reported Plant response rating, Blackgrass for blackgrass (Alopecurus myosuroides); item: Cc1cc(C)c(N(COC(=O)C(C)(C)C)S(=O)(=O)C(F)(F)F)cc1C1=NOC2(C)CCCC12 (stereo not shown)
30

Query the reported Plant response rating, Blackgrass for blackgrass (Alopecurus myosuroides); item: `COC1CCN(C(=O)c2cc(NS(=O)(=O)C(F)(F)F)c(C)c(C)c2C)CC1`
0

Query the reported Plant response rating, Blackgrass for blackgrass (Alopecurus myosuroides); item: Cc1cc(F)c(C2=NOC3CCCC23)cc1NS(=O)(=O)C(F)(F)F (stereo not shown)
0

Query the reported Plant response rating, Blackgrass for blackgrass (Alopecurus myosuroides); item: Cc1cc(C)c(C2=NOC(OCC(C)C)C2)cc1NS(=O)(=O)C(F)(F)F (stereo not shown)
70

Query the reported Plant response rating, Blackgrass for blackgrass (Alopecurus myosuroides); item: COC1CCCN(C(=O)c2cc(NS(=O)(=O)C(F)(F)F)c(Cl)c(F)c2C)C1 (stereo not shown)
10

* * *

# Tested on: Foxtail, Giant (giant foxtail, Setaria faberi)
# TEST_METHOD_NOTES: Test A preemergence, Foxtail, Giant
# Assay type: in vivo
# CONDITION_SET: Preemergence, 500 g ai/ha; visual injury on 0 to 100 scale (0 no effect, 100 complete control), approximately 10 days
Hi there, I'd appreciate the recorded Foxtail, Giant plant response rating for every entry that follows.
The answer should be a number; do not append a unit.

Query the reported Foxtail, Giant plant response rating for Foxtail, Giant (giant foxtail, Setaria faberi); item: Cc1cc(C)c(N(S(=O)(=O)C(F)(F)F)S(=O)(=O)C(F)(F)F)cc1N1CC2(CCCCC2)OC1=O [Compound 269]
100

Query the reported Foxtail, Giant plant response rating for Foxtail, Giant (giant foxtail, Setaria faberi); item: Cc1cc(C)c(N2CC3(CCCCC3)OC2=O)cc1NS(=O)(=O)C(F)(F)F [Compound 279]
100

Query the reported Foxtail, Giant plant response rating for Foxtail, Giant (giant foxtail, Setaria faberi); item: Cc1cc(F)c(C(=O)N2CCOCC2)cc1N(S(=O)(=O)C(F)(F)F)S(=O)(=O)C(F)(F)F [Compound 237]
40

Query the reported Foxtail, Giant plant response rating for Foxtail, Giant (giant foxtail, Setaria faberi); item: Cc1cc(C)c(N(S(=O)(=O)C(F)(F)F)S(=O)(=O)C(F)(F)F)cc1C1=NOC(C)(CCl)C1 (centres unmarked) [Compound 227]
100

Query the reported Foxtail, Giant plant response rating for Foxtail, Giant (giant foxtail, Setaria faberi); item: Cc1cc(C)c(C2=NOC3(CCCCCC3)C2)cc1NS(=O)(=O)C(F)(F)F [Compound 277]
100

* * *

Hi there, I'd appreciate the recorded Wheat plant response rating for every entry that follows.
# Tested on: wheat (Triticum aestivum)
# TEST_METHOD_NOTES: Test A postemergence, wheat
# Format: in vivo
# CONDITION_SET: Postemergence, 500 g ai/ha; visual injury vs untreated controls after approx. 10 days; 0 to 100 scale (0 no effect, 100 complete control)
The answer should be a number; do not append a unit.

Query the reported Wheat plant response rating for wheat (Triticum aestivum); item: `Cc1cc(C)c(-n2nccc(C)c2=O)cc1NS(=O)(=O)C(F)(F)F`
70

Query the reported Wheat plant response rating for wheat (Triticum aestivum); item: `Cc1cc(Cl)c(NS(=O)(=O)C(F)(F)F)cc1C1=NOC2(CCCC2)C1`
70

Query the reported Wheat plant response rating for wheat (Triticum aestivum); item: `Cc1cc(F)c(C(=O)N(C)C)cc1NS(=O)(=O)C(F)(F)F`
70

Query the reported Wheat plant response rating for wheat (Triticum aestivum); item: `Cc1cc(C)c(N(S(=O)(=O)C(F)(F)F)S(=O)(=O)C(F)(F)F)cc1C1=NOC2(CCC3(CC2)OCCO3)C1`
60

Query the reported Wheat plant response rating for wheat (Triticum aestivum); item: `Cc1cc(F)c(-c2ccnn(C)c2=O)cc1NS(=O)(=O)C(F)(F)F`
80

Query the reported Wheat plant response rating for wheat (Triticum aestivum); item: `Cc1cc(C)c(-c2ccnn(CC(F)(F)F)c2=O)cc1NS(=O)(=O)C(F)(F)F`
70

Query the reported Wheat plant response rating for wheat (Triticum aestivum); item: `Cc1cc(C)c(C2=NOC3(CCC(C)(C)CC3)C2)cc1NS(=O)(=O)C(F)(F)F`
0

Query the reported Wheat plant response rating for wheat (Triticum aestivum); item: `Cc1cc(C)c(C(=O)N2CCC3(CCCCC3)CC2)cc1NS(=O)(=O)C(F)(F)F`
0

* * *

# Tested on: blackgrass (Alopecurus myosuroides)
# TEST_METHOD_NOTES: Test A postemergence, blackgrass
# Format: in vivo
# CONDITION_SET: Postemergence, 500 g ai/ha; visual injury vs untreated controls after approx. 10 days; 0 to 100 scale (0 no effect, 100 complete control)
MEASURE_NAME: Blackgrass plant response rating
The answer should be a number; do not append a unit.

# get_value(readout='Blackgrass plant response rating', item= `Cc1ccc(-c2ccnn(C)c2=O)cc1NS(=O)(=O)C(F)(F)F` )
70

# get_value(readout='Blackgrass plant response rating', item= `CC(=O)N(c1cc(C2=NOC3(CCCC3)C2)c(C)cc1C)S(=O)(=O)C(F)(F)F` )
30

# get_value(readout='Blackgrass plant response rating', item= `Cc1cc(Cl)c(N(S(=O)(=O)C(F)(F)F)S(=O)(=O)C(F)(F)F)cc1C1=NOC2(CCCCC2)C1` )
20

# get_value(readout='Blackgrass plant response rating', item= Cc1cc(C)c(C2=NOC3CCCC23)cc1NS(=O)(=O)C(F)(F)F (stereo not shown) )
40
